- Protocol summary: folding enthalpy; higher = less favourable; fluorescence melt of hairpins on a sequencing array, two-state fit
- Test parameters: sodium 0.088 M
Kind request: treat -20 kcal/mol as inclusive, so folding enthalpy at -20 kcal/mol or higher is MET, anything lower is NOT MET.

Look over these answered cases.
| Primary sequence | Cat |
| --- | --- |
| GGTTGGGGAAACCTGACC (((..((....))..))) | NOT MET |
| GTACCCCCGAAAGGGTAC (((..(((....)))))) | NOT MET |
| GGCCCCGAAAGGGAGGCC ((((((....)))..))) | NOT MET |

Record GAGTCGGGAAACCGATTC ((.((((....)))).)) ; criterion: folding enthalpy no lower than -20 kcal/mol. Met?
NOT MET

Record GCAAAGCGAAAGCACTGC (((..((....))..))) ; criterion: folding enthalpy no lower than -20 kcal/mol. Met?
MET

----------
- Protocol summary: folding enthalpy; higher = less favourable; fluorescence melt of hairpins on a sequencing array, two-state fit
- Test parameters: sodium 0.088 M
Measured quantity: folding enthalpy (kcal/mol)
One number for each entry, in kcal/mol.

Below are worked cases with known answers.
| Primary sequence | U | folding enthalpy |
| --- | --- | --- |
| GATCTCTTAGGAGATC ((((((....)))))) | kcal/mol | -38.1 |
| GAAGCCCGAAAGGGTTTC (((.(((....))).))) | kcal/mol | -34.4 |
| CGTCCCGGAAACGGAACG (((.(((....))).))) | kcal/mol | -26.3 |
| GTGTCTGGAAACAGGCAC (((.(((....))).))) | kcal/mol | -33.4 |
| GCGACTCGAAAGAGACGC (((.(((....))).))) | kcal/mol | -48.5 |

Could I get folding enthalpy for every one of these entries?
1. GGTACGGGAAACCGTATC (.(((((....))))).)
2. GCTTTGCGAAAGCCATGC ((.(.((....)).).))
3. GATCAGAGACCTGATC ((((((....))))))
4. GCTATGCGAAAGCTTCGC ((.(.((....)).).))
5. GATCTAGGTATAGATC ((((((....))))))
6. GAGCAGGGAAACTTGCTC (((((.(....).)))))

-25.7
-11.6
-34.6
-14.2
-34.7
-32.1

Could I get folding enthalpy for every one of these entries?
1. GCTCACGGAAACGCAAGC (((..((....))..)))
2. GATCGTAAAGACGATC ((((((....))))))
3. GAGCGCGGAAACGCGCCC (.(((((....))))).)
4. GACGTGACGAAAGTCGTC (((..(((....))))))
5. GTGGAAGGAAACCTCCAC (((((.(....).)))))
6. GCTATGCGAAAGCGTCGC ((.(.((....)).).))
7. GATCGATTTATCGATC ((((((....))))))

1: -8.31; 2: -31.4; 3: -5.64; 4: -14.2; 5: -34; 6: -18.1; 7: -44.8

----------
- Protocol summary: melting temperature; fluorescence melt of hairpins on a sequencing array, two-state fit, raised by 9.35 °C to match UV melts
- Test parameters: sodium 0.088 M
Recorded Tm split into classes low range: < 50 °C; mid range: ≥ 50 °C and < 60 °C; high range: ≥ 60 °C

| Primary sequence | Cat |
| --- | --- |
| GGAGCCGAAAGGCTATCC ((((((....)))..))) | low range |
| GCTGCGGGAAACCGTGGC ((..(((....)))..)) | mid range |
| GTACCCCCGAAAGGGTAC (((..(((....)))))) | mid range |
| GGGAGCGAAAGCTGCCCC ((((((....)))..))) | mid range |
| GATCACTTTGGTGATC ((((((....)))))) | mid range |
| GAGAAGGAAACTTCTC ((((((....)))))) | low range |
| GAATACGAAAGTAGTTC ((((((....))).))) | low range |
| GCTATTACGAAAGTAAGC (((..(((....)))))) | low range |
| GATCAAGGTGTTGATC ((((((....)))))) | low range |
| GCTTTGCGAAAGCTGAGC (((..((....))..))) | mid range |

Dear colleague, I would appreciate it if you could identify the bin for GGTCGCCGAAAGGCCACC (((.(((....))).))) and reply at your convenience.
low range

Dear colleague, I would appreciate it if you could identify the bin for AAGGGGAAACCCTT (((((....))))) and reply at your convenience.
low range

Dear colleague, I would appreciate it if you could identify the bin for GTCGCCGGAAACGGTGAC (((.(((....))).))) and reply at your convenience.
high range
